target entity: recombinant human GCN2 protein (Homo sapiens, UniProt Q9P2K8)
Sequence (Q9P2K8 whole entry): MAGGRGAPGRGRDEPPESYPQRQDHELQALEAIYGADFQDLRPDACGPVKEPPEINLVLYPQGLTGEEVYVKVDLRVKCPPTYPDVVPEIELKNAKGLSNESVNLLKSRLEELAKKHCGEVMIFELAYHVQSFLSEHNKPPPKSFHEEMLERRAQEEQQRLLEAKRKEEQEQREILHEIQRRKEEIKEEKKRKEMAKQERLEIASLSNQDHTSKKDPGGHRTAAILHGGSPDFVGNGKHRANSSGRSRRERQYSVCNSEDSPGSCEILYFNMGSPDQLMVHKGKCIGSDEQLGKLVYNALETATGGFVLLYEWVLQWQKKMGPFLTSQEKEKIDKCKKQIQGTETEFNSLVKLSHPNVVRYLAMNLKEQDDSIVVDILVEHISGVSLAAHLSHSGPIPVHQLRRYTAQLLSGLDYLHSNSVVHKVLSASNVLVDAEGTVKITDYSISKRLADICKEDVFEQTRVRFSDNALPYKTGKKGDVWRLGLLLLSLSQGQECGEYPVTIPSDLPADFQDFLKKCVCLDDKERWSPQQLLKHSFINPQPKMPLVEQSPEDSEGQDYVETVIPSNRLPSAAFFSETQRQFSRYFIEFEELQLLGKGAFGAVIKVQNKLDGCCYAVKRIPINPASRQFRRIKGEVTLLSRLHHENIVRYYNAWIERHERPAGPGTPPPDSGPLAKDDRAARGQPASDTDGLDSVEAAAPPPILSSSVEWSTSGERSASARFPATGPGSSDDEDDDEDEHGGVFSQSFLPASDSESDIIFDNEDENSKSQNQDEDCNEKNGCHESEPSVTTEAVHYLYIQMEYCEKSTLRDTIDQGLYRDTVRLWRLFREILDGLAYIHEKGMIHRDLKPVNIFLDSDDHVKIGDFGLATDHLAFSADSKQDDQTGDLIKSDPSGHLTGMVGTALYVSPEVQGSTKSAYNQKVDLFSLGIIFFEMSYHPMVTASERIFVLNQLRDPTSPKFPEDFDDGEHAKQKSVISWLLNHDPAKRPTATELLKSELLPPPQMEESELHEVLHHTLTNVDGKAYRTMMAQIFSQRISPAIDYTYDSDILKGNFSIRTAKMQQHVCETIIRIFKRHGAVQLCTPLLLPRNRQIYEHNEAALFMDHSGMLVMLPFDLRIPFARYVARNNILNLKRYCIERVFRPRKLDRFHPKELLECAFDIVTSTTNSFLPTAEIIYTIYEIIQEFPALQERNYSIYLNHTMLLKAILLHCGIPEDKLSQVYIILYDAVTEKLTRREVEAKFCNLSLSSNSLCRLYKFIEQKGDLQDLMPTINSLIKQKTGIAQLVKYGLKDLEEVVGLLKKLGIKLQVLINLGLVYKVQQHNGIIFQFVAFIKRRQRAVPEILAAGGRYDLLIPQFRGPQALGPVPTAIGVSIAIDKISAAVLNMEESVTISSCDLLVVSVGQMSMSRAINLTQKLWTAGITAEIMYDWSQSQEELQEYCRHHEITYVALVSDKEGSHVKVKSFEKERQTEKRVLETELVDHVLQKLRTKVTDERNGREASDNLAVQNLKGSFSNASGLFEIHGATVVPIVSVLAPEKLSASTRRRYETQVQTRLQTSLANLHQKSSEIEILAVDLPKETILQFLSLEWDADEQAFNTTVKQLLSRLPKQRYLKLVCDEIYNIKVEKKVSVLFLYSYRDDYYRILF
measurement protocol: General control nonderepressible 2 (GCN2) inhibitory capacity, 33P-ATP filter assay
conditions: recombinant human GCN2, 70 uM [gamma-33P-ATP], 40 minutes, room temperature
outcome measure: IC50

Below, each entry is followed by its recorded IC50 result.
- molecule: "Nc1ncc2c(=O)n(-c3c(F)ccc(NS(=O)(=O)c4cc(Cl)ccc4Cl)c3F)c(=O)n(C3CC3)c2n1"
  result: "300 to 1000 nM"
- molecule: "Cn1c(=O)c(-c2c(F)ccc(NS(=O)(=O)c3cc(F)ccc3F)c2F)cc2cnc(N)nc21"
  result: "100 to 300 nM"

Ask: Please look at this compound and report its IC50: COc1ncc(Cl)cc1S(=O)(=O)Nc1ccc(F)c(-n2c(=O)c3cnc(N)nc3n(C3CC3)c2=O)c1F
Result: 300 to 1000 nM
